molecular target: Tie2 (Homo sapiens, UniProt Q02763); construct: amino acids of the intracellular domain 776-1124; assay: Tie2 kinase test, phosphorylation of PLC with GST-Tie2; conditions: GST-Tie2 intracellular domain 776-1124
Sequence (Q02763 776-1124): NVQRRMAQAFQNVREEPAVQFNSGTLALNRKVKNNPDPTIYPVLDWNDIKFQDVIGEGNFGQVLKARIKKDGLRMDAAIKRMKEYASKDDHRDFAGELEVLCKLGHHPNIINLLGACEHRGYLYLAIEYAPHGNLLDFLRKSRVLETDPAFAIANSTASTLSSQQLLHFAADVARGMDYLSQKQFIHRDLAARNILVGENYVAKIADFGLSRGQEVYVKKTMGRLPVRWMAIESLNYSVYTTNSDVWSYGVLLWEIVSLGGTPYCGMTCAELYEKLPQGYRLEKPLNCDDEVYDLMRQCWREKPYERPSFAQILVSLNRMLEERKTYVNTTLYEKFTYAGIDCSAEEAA
IC50 listing for selected compounds.
State the answer as a number, implicitly in nM.

Study these solved cases before continuing.
{"compound": "COc1ccc(C(=O)Nc2n[nH]c3sc(C(=O)NNCc4ccccc4)cc23)cc1 [Example 26]", "measured.endpoint": "IC50", "uom": "nM", "value.observed": 175}
{"compound": "CC1CN(Cc2ccc(C(=O)Nc3n[nH]c4sc(C(=O)NN(C)c5ccccc5)cc34)cc2)CCN1 (centres unmarked) [Example 14a]", "measured.endpoint": "IC50", "uom": "nM", "value.observed": 737}
{"compound": "CN1CCN(Cc2cccc(C(=O)Nc3n[nH]c4sc(C(=O)NN(C)c5ccc(Cl)cc5)cc34)c2)CC1 [Example 16b]", "measured.endpoint": "IC50", "uom": "nM", "value.observed": 2010}
{"compound": "CC1CN(Cc2ccc(C(=O)Nc3n[nH]c4sc(C(=O)NN(C)c5ccc(Cl)cc5)cc34)cc2)CCN1 (centres unmarked) [Example 14b]", "measured.endpoint": "IC50", "uom": "nM", "value.observed": 425}
{"compound": "CN(C)CCN(C)Cc1ccc(C(=O)Nc2n[nH]c3sc(C(=O)NN(C)c4ccc(Cl)cc4)cc23)cc1 [Example 20b]", "measured.endpoint": "IC50", "uom": "nM", "value.observed": 369}

(Q) Give its IC50 value. Item: CN(NC(=O)c1cc2c(NC(=O)c3ccc(CN4CCCOCC4)cc3)n[nH]c2s1)c1ccc(Cl)cc1 [Example 21b]
(A) 301

(Q) Requested read-out: IC50. Entry: COc1ccc(C(=O)Nc2n[nH]c3sc(C(=O)NN(C)c4ccccc4)cc23)cc1 [Example 2]
(A) 92

(Q) Using the record for CN(NC(=O)c1cc2c(NC(=O)c3ccc(CN4CCOCC4)cc3)n[nH]c2s1)c1ccccc1 [Example 8] , report its IC50.
(A) 252

----------
biological target: Tie2 (Homo sapiens, UniProt Q02763); construct: amino acids of the intracellular domain 776-1124; assay: Tie2 kinase test, phosphorylation of PLC with GST-Tie2; settings: GST-Tie2 intracellular domain 776-1124
Structures can show the parent of a compound that is named as a salt.
Mark each entry 1 if its IC50 sits below 0.2 µM, and 0 for all others.

Reference set, count: 4
{"compound": "CCN(NC(=O)c1cc2c(NC(=O)c3ccc(N4CCN(C)CC4)cc3)n[nH]c2s1)c1cccc(Br)c1", "classification": 1}
{"compound": "CN1CCN(c2ccc(C(=O)Nc3n[nH]c4sc(C(=O)NN(C)c5ccccc5)cc34)cc2)CC1", "classification": 1}
{"compound": "CN(NC(=O)c1cc2c(NC(=O)c3cccc(CN4CCOCC4)c3)n[nH]c2s1)c1ccc(Cl)cc1 [Example 22b]", "classification": 0}
{"compound": "COc1ccc(C(=O)Nc2n[nH]c3sc(C(=O)NNc4ccccc4C)cc23)cc1", "classification": 1}

(Q) Determine if CC(C)N(Cc1ccc(C(=O)Nc2n[nH]c3sc(C(=O)NN(C)c4ccccc4)cc23)cc1)C(C)C [Example 25, trifluoroacetate] shows IC50 strictly lower than 0.2 µM.
(A) 0

(Q) Given `CCN(NC(=O)c1cc2c(NC(=O)c3ccc(N4CCN(C)CC4)cc3)n[nH]c2s1)c1ccc(F)cc1` , is recorded IC50 strictly lower than 0.2 µM?
(A) 1

(Q) Is 0.2 µM strictly greater than the compound's reported IC50? compound: CN(NC(=O)c1cc2c(NC(=O)c3ccc(CN4CCNCC4)cc3)n[nH]c2s1)c1ccccc1 [Example 13a]
(A) 0

(Q) Consider `COc1ccc(C(=O)Nc2n[nH]c3sc(C(=O)NNc4ccccn4)cc23)cc1` . Does its IC50 lie strictly below 0.2 µM?
(A) 0

----------
target: Tie2 (Homo sapiens); construct: amino acids of the intracellular domain 776-1124; assay: Tie2 kinase test, phosphorylation of PLC with GST-Tie2; conditions: GST-Tie2 intracellular domain 776-1124
The reader will find reported pIC50 values listed item by item below.
Give only the number. pIC50 is defined as minus log10 of concentration in molar units.

// below: answered compounds
{"compound": "CN1CCCN(c2ccc(C(=O)Nc3n[nH]c4sc(C(=O)NN(C)c5ccccc5)cc34)cn2)CC1 [Example 44]", "test.target": "Tie2 (Homo sapiens)", "pIC50": 6.97}
{"compound": "CN1CCN(c2ccc(C(=O)Nc3n[nH]c4sc(C(=O)NNCc5ccccc5)cc34)cc2)CC1 [Example 32]", "test.target": "Tie2 (Homo sapiens)", "pIC50": 7.42}
{"compound": "CC1CN(Cc2ccc(C(=O)Nc3n[nH]c4sc(C(=O)NN(C)c5ccccc5)cc34)cc2)CC(C)N1 (stereo not drawn) [Example 11a]", "test.target": "Tie2 (Homo sapiens)", "pIC50": 6.28}
{"compound": "CN1CCCN(Cc2ccc(C(=O)Nc3n[nH]c4sc(C(=O)NN(C)c5ccccc5)cc34)cc2)CC1 [Example 12a]", "test.target": "Tie2 (Homo sapiens)", "pIC50": 6.25}
{"compound": "CN(NC(=O)c1cc2c(NC(=O)c3ccc(CN4CCCC4)cc3)n[nH]c2s1)c1ccc(Cl)cc1 [Example 18b]", "test.target": "Tie2 (Homo sapiens)", "pIC50": 6.41}

(Q) pIC50 lookup needed for CCN(CC)Cc1ccc(C(=O)Nc2n[nH]c3sc(C(=O)NN(C)c4ccc(Cl)cc4)cc23)cc1 [Example 15b] , thanks.
(A) 6.41

(Q) If you can, please state the reported pIC50 value of CN1CCCN(c2ccc(C(=O)Nc3n[nH]c4sc(C(=O)NN(C)c5ccccc5)cc34)cc2)CC1 [Example 47] .
(A) 7.12

(Q) Bench note: what pIC50 did COc1ccc(C(=O)Nc2n[nH]c3sc(C(=O)NN(Cc4ccccc4)c4ccccc4)cc23)cc1 [Example 4] show?
(A) 6.94

(Q) Which pIC50 reading was recorded for the compound CN(NC(=O)c1cc2c(NC(=O)c3ccc(CN4CCNCC4)cc3)n[nH]c2s1)c1ccc(Cl)cc1 [Example 13b] ?
(A) 6.49

(Q) Param item = CN1CCN(c2ccc(C(=O)Nc3n[nH]c4sc(C(=O)NN5CCCCC5)cc34)cc2)CC1 [Example 31] ; retrieve measured pIC50.
(A) 5.51

(Q) Which pIC50 is reported for this compound? CN1CCN(Cc2ccc(C(=O)Nc3n[nH]c4sc(C(=O)NN(C)c5ccccc5)cc34)cc2)CC1 [Example 10]
(A) 6.44

(Q) Can you look up the measured pIC50 of COCCN(NC(=O)c1cc2c(NC(=O)c3ccc(N4CCN(C)CC4)cc3)n[nH]c2s1)c1ccc(F)cc1 [Example 38] for me?
(A) 7.24

(Q) Look up pIC50: CN(C)CCN(C)Cc1ccc(C(=O)Nc2n[nH]c3sc(C(=O)NN(C)c4ccccc4)cc23)cc1 [Example 20a]
(A) 6.07

(Q) Entry CN(NC(=O)c1cc2c(NC(=O)c3ccc(CN4CCCC4)cc3)n[nH]c2s1)c1ccccc1 [Example 18a] has what pIC50?
(A) 6.20

(Q) Find the recorded pIC50 belonging to CN(NC(=O)c1cc2c(NC(=O)c3ccc(CN4CCCCC4)cc3)n[nH]c2s1)c1ccc(Cl)cc1 [Example 17b] and report it.
(A) 6.64

----------
molecular target: Aurora1 (Homo sapiens); construct: His tag (N); assay: Aurora1 enzymatic test, NuMA phosphorylation with [33P]ATP, Flashplate; conditions: Aurora-B/INCENP-C3 recombinant complex, 1 μM ATP
Sequence (Q96GD4 whole entry, species assumed): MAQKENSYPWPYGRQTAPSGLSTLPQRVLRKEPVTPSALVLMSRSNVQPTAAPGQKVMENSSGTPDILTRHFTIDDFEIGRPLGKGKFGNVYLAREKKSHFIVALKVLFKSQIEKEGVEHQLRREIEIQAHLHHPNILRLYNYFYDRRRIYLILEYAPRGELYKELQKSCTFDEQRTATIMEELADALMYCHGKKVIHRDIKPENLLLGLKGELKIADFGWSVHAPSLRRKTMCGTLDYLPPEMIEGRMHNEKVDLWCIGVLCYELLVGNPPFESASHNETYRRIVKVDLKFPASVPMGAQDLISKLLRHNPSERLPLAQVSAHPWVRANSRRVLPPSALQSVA
Sequence (Q9NQS7 835-903 partner limits assumed, species assumed): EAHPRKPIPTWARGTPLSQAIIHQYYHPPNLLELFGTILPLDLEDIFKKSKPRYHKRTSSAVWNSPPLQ
// NB: equality with 30 nM counts as not met; only IC50 strictly below is met

Example entries and their recorded answers appear below.
{"molecule": "CC(C)CN(NC(=O)c1cc2c(NC(=O)c3ccc(N4CCN(C)CC4)cc3)n[nH]c2s1)c1ccc(F)cc1", "test.target": "Aurora1 (Homo sapiens)", "classification": "met"}
{"molecule": "CN(NC(=O)c1cc2c(NC(=O)c3ccc(CN4CCCCC4)cc3)n[nH]c2s1)c1ccc(Cl)cc1 [Example 17b]", "test.target": "Aurora1 (Homo sapiens)", "classification": "not met"}
{"molecule": "CCN(CC)CCNCc1ccc(C(=O)Nc2n[nH]c3sc(C(=O)NN(C)c4ccccc4)cc23)cc1 [Example 23a]", "test.target": "Aurora1 (Homo sapiens)", "classification": "not met"}
{"molecule": "CN1CCN(c2ccc(C(=O)Nc3n[nH]c4sc(C(=O)NN(C)c5ccccc5)cc34)cc2)CC1", "test.target": "Aurora1 (Homo sapiens)", "classification": "met"}

(Q) State whether 30 nM exceeds IC50 recorded for `CN1CCN(c2ccc(C(=O)Nc3n[nH]c4sc(C(=O)NN(C)c5ccc(Cl)cc5)cc34)cc2)CC1` .
(A) met

(Q) Regarding `COc1ccc(C(=O)Nc2n[nH]c3sc(C(=O)NNC4CCCCC4)cc23)cc1` , kindly confirm whether its IC50 is beneath 30 nM.
(A) not met

(Q) Lab log: compare recorded IC50 with 30 nM; is it strictly lower for `CN1CCCN(c2ccc(C(=O)Nc3n[nH]c4sc(C(=O)NN(C)c5ccccc5)cc34)cn2)CC1` ?
(A) met
